The measurements presented in this section are drawn from ChEMBL document CHEMBL1135213.

biological target: Cyclooxygenase (Homo sapiens) (UniProt P35354+P23219); conditions: Ovis aries
Description: Half-maximal inhibition of the COX activity was measured by the direct analysis of the consumed O2 using isolated sheep seminal vesicles
Criterion: Inhibitory activity meeting or surpassing 3. Met: MET. Not met: NOT MET.

[[record]]
molecule = "CC1=C(CC(=O)O)c2cc(F)ccc2C1=Cc1ccoc1"
experimental_target = "Cyclooxygenase (Homo sapiens) (UniProt P35354+P23219)"
group_label = "NOT MET"

[[record]]
molecule = "CSc1ccc(/C=C2/C(C)=C(CC(=O)O)c3cc(F)ccc32)cc1 [SULINDAC SULFIDE]"
experimental_target = "Cyclooxygenase (Homo sapiens) (UniProt P35354+P23219)"
group_label = "NOT MET"

[[record]]
molecule = "COc1ccc(C=C2C(C)=C(CC(=O)O)c3cc(F)ccc32)cc1"
experimental_target = "Cyclooxygenase (Homo sapiens) (UniProt P35354+P23219)"
group_label = "NOT MET"

[[record]]
molecule = "CC1=C(CC(=O)O)c2cc(F)ccc2C1=Cc1ccc(CO)o1"
experimental_target = "Cyclooxygenase (Homo sapiens) (UniProt P35354+P23219)"
group_label = "MET"

[[record]]
molecule = "CC1=C(CC(=O)O)c2cc(F)ccc2C1=Cc1cccs1"
experimental_target = "Cyclooxygenase (Homo sapiens) (UniProt P35354+P23219)"
group_label = "NOT MET"


====

test: Inhibition of p21ras protein and Raf kinase in vitro using recombinant proteins; parameters: unit not given here
attribute-measured: Inhibitory activity

[[record]]
molecule = "CC1=C(CC(=O)O)c2cc(F)ccc2C1=Cc1ccc(CO)o1"
attribute_measured = "Inhibitory activity"
result = 45

[[record]]
molecule = "CC1=C(CC(=O)O)c2cc(F)ccc2C1=Cc1ccoc1"
attribute_measured = "Inhibitory activity"
result = 30

[[record]]
molecule = "COc1ccc(C=C2C(C)=C(CC(=O)O)c3cc(F)ccc32)cc1"
attribute_measured = "Inhibitory activity"
result = 10

[[record]]
molecule = "CSc1ccc(/C=C2/C(C)=C(CC(=O)O)c3cc(F)ccc32)cc1 [SULINDAC SULFIDE]"
attribute_measured = "Inhibitory activity"
result = 210


====

The entries below come with measured pIC50 values attached.
system: REF; experiment: Anti-proliferative activity was evaluated by its ability to inhibit proliferation of rat embryonic fibroblasts (REF); format: functional, cell-based; settings: Rattus norvegicus, REF
pIC50: −log10 of the molar value.
attribute-measured: pIC50

[[record]]
compound = "CC1=C(CC(=O)O)c2cc(F)ccc2C1=Cc1ccoc1"
attribute_measured = "pIC50"
result = 4.52

[[record]]
compound = "COc1ccccc1C=C1C(C)=C(CC(=O)O)c2cc(F)ccc21"
attribute_measured = "pIC50"
result = 3.70

[[record]]
compound = "COc1cccc(C=C2C(C)=C(CC(=O)O)c3cc(F)ccc32)c1"
attribute_measured = "pIC50"
result = 3.70

[[record]]
compound = "CC1=C(CC(=O)O)c2cc(F)ccc2C1=Cc1ccc(C)o1"
attribute_measured = "pIC50"
result = 4.70

[[record]]
compound = "CSc1ccc(/C=C2/C(C)=C(CC(=O)O)c3cc(F)ccc32)cc1 [SULINDAC SULFIDE]"
attribute_measured = "pIC50"
result = 3.70

[[record]]
compound = "CC1=C(CC(=O)O)c2cc(F)ccc2C1=Cc1ccc([S+](C)[O-])cc1 (centres undefined) [SULINDAC]"
attribute_measured = "pIC50"
result = 4.00

[[record]]
compound = "CC1=C(CC(=O)O)c2cc(F)ccc2C1=Cc1cccs1"
attribute_measured = "pIC50"
result = 4.00

[[record]]
compound = "CC1=C(CC(=O)O)c2cc(F)ccc2C1=Cc1ccc(CO)o1"
attribute_measured = "pIC50"
result = 4.05

[[record]]
compound = "COc1ccc(C=C2C(C)=C(CC(=O)O)c3cc(F)ccc32)cc1"
attribute_measured = "pIC50"
result = 3.30

